# test protocol: in vivo
# Format: in vivo, C57Bl/6J mice
# assay conditions: C57Bl/6J, mouse, in vivo, po
reported property: half-life

Measured half-life of NC/C(=C\F)COc1cccc(Cn2c(=S)[nH]c(=O)c3[nH]cnc32)c1 : 2 to 4 h

----------
Exercise: state measured IC50 for each of the compounds provided.
# tested on: MPO (Homo sapiens)
# Sequence (P05164 279-745): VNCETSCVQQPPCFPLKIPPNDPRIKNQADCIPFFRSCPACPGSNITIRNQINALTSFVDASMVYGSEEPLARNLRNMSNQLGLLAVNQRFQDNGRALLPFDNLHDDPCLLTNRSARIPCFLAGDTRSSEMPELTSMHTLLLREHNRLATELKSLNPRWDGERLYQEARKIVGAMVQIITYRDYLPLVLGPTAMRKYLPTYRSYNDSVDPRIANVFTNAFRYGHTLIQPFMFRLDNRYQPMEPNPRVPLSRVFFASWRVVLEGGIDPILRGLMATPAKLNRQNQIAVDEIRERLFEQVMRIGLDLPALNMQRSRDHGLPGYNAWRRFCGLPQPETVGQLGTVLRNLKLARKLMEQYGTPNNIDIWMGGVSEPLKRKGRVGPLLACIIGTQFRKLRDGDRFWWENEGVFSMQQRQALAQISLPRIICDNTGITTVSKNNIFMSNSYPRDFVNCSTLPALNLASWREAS
# Sequence (P05164 165-273): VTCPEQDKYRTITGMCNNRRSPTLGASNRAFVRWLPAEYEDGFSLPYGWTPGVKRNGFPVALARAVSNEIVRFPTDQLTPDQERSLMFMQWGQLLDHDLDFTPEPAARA
Give bare numbers, in nM.

compound: CC(C)OCCn1c(=S)[nH]c(=O)c2[nH]ccc21 [Verdiperstat, reference compound]
reported property: IC50
measured value: 600

// next item, IC50 requested
Measured IC50 of NC/C(=C\F)COc1cccc(Cn2c(=S)[nH]c(=O)c3[nH]cnc32)c1 : 20
